Each recorded value in this set is attributed to patent US7368578B2.

Item-by-item account of melting point

Example entries and their recorded answers appear below.
QUERY: Item under review: Cc1oc(-c2ccccc2)nc1COc1ccc(OCc2nc(-c3ccccc3)oc2CO)cc1 . Reported melting point?
RESULT: 157 to 158 °C

QUERY: Here is the next compound: Cc1oc(-c2ccccc2)nc1COc1ccc(OCc2oc(-c3ccccc3)nc2C=O)cc1
RESULT: 127 to 128 °C

QUERY: Here is the next compound: COc1cc(COc2nn(Cc3ccccc3)cc2C(N)=O)ccc1OCc1nc(-c2ccccc2)oc1C
RESULT: 164 to 165 °C

QUERY: Here is the next compound: COc1cc(COc2cc(/C=C/c3cscn3)n(-c3ccccc3)n2)ccc1OCc1nc(-c2ccco2)oc1C
RESULT: 154 to 155 °C

QUERY: Here is the next compound: COc1cc(COc2cc(Cn3cncn3)n(-c3ccccc3)n2)ccc1OCc1nc(-c2ccco2)oc1C
RESULT: 95 to 96 °C

***
QUERY: Item under review: CCOC(=O)/C=C/c1cn(CC)nc1OCc1ccc(OCc2nc(-c3ccco3)oc2C)c(OC)c1 . Reported melting point?
RESULT: 149 to 150 °C

QUERY: Here is the next compound: COc1cc(COc2nn(Cc3ccccc3)cc2C(C)=O)ccc1OCc1nc(-c2ccco2)oc1C
RESULT: 144 to 145 °C

QUERY: Here is the next compound: Cc1oc(-c2ccco2)nc1COc1ccc(COc2nn(-c3ccccc3)cc2C=O)cc1
RESULT: 148 to 149 °C

QUERY: Here is the next compound: CCOC(=O)c1cn(Cc2ccccc2)nc1OCc1ccc(OCc2nc(-c3ccco3)oc2C)cc1
RESULT: 101 to 102 °C

QUERY: Here is the next compound: COc1cc(COc2nn(-c3ccccc3)cc2/C=C/C(C)=O)ccc1OCc1nc(-c2ccco2)oc1C
RESULT: 177 to 178 °C

QUERY: Here is the next compound: COc1cc(COc2nn(-c3ccccc3)cc2C=O)ccc1OCc1nc(-c2ccco2)oc1C
RESULT: 137 to 138 °C

QUERY: Here is the next compound: COc1cc(COc2nn(-c3ccccc3)cc2C=O)ccc1OCc1nc(-c2cccc(C#N)c2)oc1C
RESULT: 161 to 162 °C

QUERY: Here is the next compound: CCc1nc(/C=C/c2cn(-c3ccccc3)nc2OCc2cc(OCc3nc(-c4ccc(CC(=O)O)cc4)oc3C)no2)cs1
RESULT: 156 to 158 °C

QUERY: Here is the next compound: CCOP(=O)(/C=C/c1cn(-c2ccccc2)nc1OCc1ccc(OCc2nc(-c3cccc(C(=O)O)c3)oc2C)c(OC)c1)OCC
RESULT: 148 to 149 °C

QUERY: Here is the next compound: CCOP(=O)(/C=C/c1cn(-c2ccccc2)nc1OCc1ccc(OCc2nc(N3CCCCC3)sc2C)c(OC)c1)OCC
RESULT: 95 to 96 °C

QUERY: Here is the next compound: COc1cc(COc2cc(C#N)n(-c3ccccc3)n2)ccc1OCc1nc(-c2ccccc2)oc1C
RESULT: 120 to 121 °C
